Listed next: entries and their corresponding SH2 binding enrichment.
Biological target: c-Src SH2;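 note: peptide library displayed on the E. coli surface as eCPX fusions, selected cells deep-sequenced, score is each peptide's frequency after selection divided by its frequency in the input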
Test: SH2 binding enrichment of the phosphorylated peptide, bacterial display (enrichment ratio); higher = better substrate or ligand; peptides without Tyr show the background
property_label: SH2 binding enrichment

SDFSSYARTSI [TERT_Y949_YF] :: 0.586
LHSDHYSPSGR [TMPRSS12_Y23_Y19H] :: 0.637
APGNAYGDAGF [SYP_Y250_D248N_YF] :: 0.469
RGKDSYETSQL [SPP1_Y225] :: 0.482
DEIPLYLKGGV [COX7A2_Y44] :: 0.454
GPSTPYTKSKR [SMARCC2_Y324] :: 0.505
FESPRYLQVHI [FANCA_Y488] :: 0.648
MKKQKYGRIIM [HSD17B4_Y143] :: 1.54
SIKDKYVTAFY [KCNH2_Y611_L615F] :: 0.461
TKGMIYGGGGG [PSME1_Y249] :: 0.483
GTPVMYTYDEY [COL10A1_Y623] :: 2.67
WKEREYEVVRD [CPS1_Y634_I632R] :: 6.04
PRRRFYVVACD [RNASE3_Y134_G130R] :: 0.47
MDDKEYFSVHN [MET_Y1234_Y1230D_YF] :: 0.442
KVDKEYEVRVR [GHR_Y226] :: 0.589
RPLVVYPWTQR [HBB_Y36_L32P] :: 0.623
FASTGYVIAIQ [GRIN2B_Y762_G763V] :: 0.742
VNKGGYFSVNL [C3orf33_Y164_S160N] :: 1.4
TEAEPYFCSLR [NPHS1_Y1138_R1140C_YF] :: 0.638
FSKDIYKRVTG [PANK2_Y405_N404I_YF] :: 0.41
FDDDDYDTDFV [BLM_Y296] :: 0.555
FTYDPYSEEDP [IL2RB_Y387] :: 0.555
INITIYGKTFH [EFHC1_Y177_R182H] :: 0.47
EQFELYCEMGS [CBL_Y371_YF] :: 0.46
YQSKHYACIRQ [TIMP3_Y182] :: 2.08
SVVVPYETPEV [TP53_Y220_P222T] :: 1.83
TSFSGYRCHRH [NKAPL_Y94_Y96C_YF] :: 0.661
KNRDVSSSDFF [USP24_Y2134_Y2134S_YF] :: 0.424
CPEARYNRSPI [PTAR1_Y42] :: 0.522
SNNYIYKTLGV [FAM83B_Y639] :: 0.393
SRLSAYPALEG [CD5_Y465_H461R] :: 0.437
GKSHIYFWTLE [EML2_Y230] :: 0.548
VEDHYYEGGIG [TKT_Y564] :: 3.89
AVNNFYAAKKT [CCDC178_Y422_D420N] :: 0.518
AIGFEYSEINI [SIGLEC12_Y588_YF] :: 0.923
EFLHKYKGFKI [SYNE1_Y6953_Q6951H_YF] :: 0.34
KEEEDYREENN [BMS1_Y651_K652R] :: 0.458
SYMVRYNQPRV [GRIN2D_Y736] :: 1.11
VRTSKYRGGGG [HBA1_Y141_L137R] :: 0.353
KKLEVYQSIAD [MYBPC3_Y548] :: 1.47
HNQDGYSFLSR [LDLR_Y845_P848L_YF] :: 6.05
LLREWYLPDPY [SIX3_Y225_Q227P] :: 1.1
KLLPEYPGVLS [DHFR2_Y163] :: 0.574
FPSLPYSPVSS [CAMKK2_Y128_C123Y_YF] :: 0.672
SENAFYLSPDI [COL6A3_Y2827] :: 0.475
LFMGDYVDRGF [PPP2CA_Y86_YF] :: 0.54
GHEEFYSTHPH [LRRK2_Y1402_R1398H] :: 0.434
LSALDYKIFFF [WDPCP_Y210_YF] :: 0.557
LVQAEYWHDRI [PPT1_Y185_P189R] :: 0.685
